- Target or system: Ret(h) (Homo sapiens)
- Sequence (P07949 29-1114): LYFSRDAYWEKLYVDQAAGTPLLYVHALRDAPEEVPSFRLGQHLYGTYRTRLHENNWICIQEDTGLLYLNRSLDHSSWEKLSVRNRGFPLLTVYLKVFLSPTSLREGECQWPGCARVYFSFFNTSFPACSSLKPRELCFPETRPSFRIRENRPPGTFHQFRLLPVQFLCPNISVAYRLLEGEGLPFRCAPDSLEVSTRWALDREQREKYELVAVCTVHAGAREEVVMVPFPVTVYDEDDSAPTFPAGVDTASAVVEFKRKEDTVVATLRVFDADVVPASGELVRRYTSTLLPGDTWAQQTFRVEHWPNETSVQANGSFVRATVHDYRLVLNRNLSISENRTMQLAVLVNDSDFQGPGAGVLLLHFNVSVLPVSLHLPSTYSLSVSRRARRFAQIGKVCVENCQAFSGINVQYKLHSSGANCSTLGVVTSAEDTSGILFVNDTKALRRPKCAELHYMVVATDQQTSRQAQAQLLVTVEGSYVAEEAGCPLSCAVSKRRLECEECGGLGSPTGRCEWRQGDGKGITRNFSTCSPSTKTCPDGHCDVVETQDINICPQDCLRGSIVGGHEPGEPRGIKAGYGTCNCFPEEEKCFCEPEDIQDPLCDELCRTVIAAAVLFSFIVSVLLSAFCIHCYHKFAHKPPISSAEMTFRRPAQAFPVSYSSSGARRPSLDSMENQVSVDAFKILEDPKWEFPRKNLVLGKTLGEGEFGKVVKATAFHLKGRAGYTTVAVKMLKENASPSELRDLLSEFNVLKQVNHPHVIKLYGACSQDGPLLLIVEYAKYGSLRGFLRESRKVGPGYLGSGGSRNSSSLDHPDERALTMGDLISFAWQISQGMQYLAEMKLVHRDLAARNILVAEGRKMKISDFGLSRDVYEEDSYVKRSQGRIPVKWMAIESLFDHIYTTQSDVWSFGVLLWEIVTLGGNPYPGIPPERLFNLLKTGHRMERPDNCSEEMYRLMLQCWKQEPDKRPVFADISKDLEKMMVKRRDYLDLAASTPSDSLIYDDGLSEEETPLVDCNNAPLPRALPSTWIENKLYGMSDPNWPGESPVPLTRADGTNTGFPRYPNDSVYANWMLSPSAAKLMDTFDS
- Assay details: KinaseProfiler kinase assay
- Assay type: biochemical
- Experimental: This example tests the inhibitory properties of representative compounds of the invention in c-Src kinase, Aurora-A kinase, Flt3 kinase, Ret kinase and TrkA Kinase assays (see, Daniele Fancelli et al, J. Med. Chem., 2006, 49 (24), pp 7247-7251). […] The Kinase Hotspot℠ kinase assay was also used to test the compounds for IC50 or % inhibitions (Reaction Biology Corp.). Inhibitory IC50 values were determined by titration of compound at the optimal kinase concentration (Kinase EC50).
Metric: inhibition at 1 µM (%)

In [3]: df
Out[3]:
                                   compound              metric  readout_units  readout_value
0  Cc1cc2c(F)c(Oc3nc(Nc4cc(C5CC5)[nH]n4)cc(N4CCN(c5ccncc5)CC4)n3)ccc2[nH]1  inhibition at 1 µM              %            101
1  C/C=C/c1cc(Nc2cc(N3CCN(CCOC)CC3)nc(Oc3ccc4[nH]c(C)cc4c3F)n2)n[nH]1  inhibition at 1 µM              %            100
2  C/C=C/c1cc(Nc2cc(N3CCNCC3)nc(Oc3ccc4[nH]c(C)cc4c3F)n2)n[nH]1  inhibition at 1 µM              %             99
3  Cc1cc2c(F)c(Oc3nc(Nc4cc(C5CC5)[nH]n4)cc(N4CCN(c5ccccn5)CC4)n3)ccc2[nH]1  inhibition at 1 µM              %            101
4  Cc1cc2c(F)c(Oc3nc(Nc4cc(C5CC5)[nH]n4)cc(N4CCC(N(C)C)C4)n3)ccc2[nH]1 (centres unmarked)  inhibition at 1 µM              %             98

###

- Target or system: KDR(h) (Homo sapiens)
- Sequence (P35968 20-1356): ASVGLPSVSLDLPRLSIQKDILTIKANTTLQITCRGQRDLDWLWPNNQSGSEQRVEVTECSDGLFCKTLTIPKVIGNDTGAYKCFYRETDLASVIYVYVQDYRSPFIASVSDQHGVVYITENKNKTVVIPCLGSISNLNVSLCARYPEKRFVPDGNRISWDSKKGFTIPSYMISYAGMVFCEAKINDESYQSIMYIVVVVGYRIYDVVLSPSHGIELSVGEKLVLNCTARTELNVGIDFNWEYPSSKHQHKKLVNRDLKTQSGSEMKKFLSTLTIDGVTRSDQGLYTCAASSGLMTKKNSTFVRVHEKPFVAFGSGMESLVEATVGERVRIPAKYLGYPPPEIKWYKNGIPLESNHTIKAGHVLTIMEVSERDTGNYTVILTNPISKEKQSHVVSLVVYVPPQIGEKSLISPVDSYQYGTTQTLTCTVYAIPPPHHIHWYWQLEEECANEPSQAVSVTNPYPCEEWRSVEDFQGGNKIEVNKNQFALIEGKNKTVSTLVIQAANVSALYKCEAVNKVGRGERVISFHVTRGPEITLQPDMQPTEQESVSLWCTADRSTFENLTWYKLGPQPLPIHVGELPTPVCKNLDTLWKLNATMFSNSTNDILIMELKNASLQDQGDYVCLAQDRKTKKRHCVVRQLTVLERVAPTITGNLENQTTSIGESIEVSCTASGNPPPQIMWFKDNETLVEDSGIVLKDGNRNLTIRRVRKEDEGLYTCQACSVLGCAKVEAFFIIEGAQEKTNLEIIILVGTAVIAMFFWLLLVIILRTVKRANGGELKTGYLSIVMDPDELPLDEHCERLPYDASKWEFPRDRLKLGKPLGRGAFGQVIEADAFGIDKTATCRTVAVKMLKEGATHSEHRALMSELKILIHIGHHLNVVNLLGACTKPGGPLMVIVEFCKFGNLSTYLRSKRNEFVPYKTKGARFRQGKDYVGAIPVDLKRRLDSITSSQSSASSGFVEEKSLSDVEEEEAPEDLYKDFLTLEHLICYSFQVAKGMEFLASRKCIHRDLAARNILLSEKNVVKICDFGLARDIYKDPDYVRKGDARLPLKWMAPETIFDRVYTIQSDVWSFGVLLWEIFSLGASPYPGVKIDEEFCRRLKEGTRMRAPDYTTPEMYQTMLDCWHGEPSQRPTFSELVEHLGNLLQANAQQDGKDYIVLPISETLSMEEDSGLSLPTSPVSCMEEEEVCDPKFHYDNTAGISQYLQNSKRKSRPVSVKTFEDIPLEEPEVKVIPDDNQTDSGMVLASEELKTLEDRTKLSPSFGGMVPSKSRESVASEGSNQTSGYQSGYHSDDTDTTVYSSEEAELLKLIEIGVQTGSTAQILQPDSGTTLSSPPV
- Assay details: KinaseProfiler kinase assay
- Assay type: biochemical
- Condition details: VEGFR2; read-out: IC50
Metric: pIC50
# reply with the number alone; pIC50 is -log10 of concentration in mol/L

Lookup: Item C/C=C/c1cc(Nc2cc(N3CCN(C)CC3)nc(Oc3ccc4[nH]c(C)cc4c3F)n2)n[nH]1 [Compound 53] has what recorded pIC50?
Found: 7.80

###

- Target or system: FGFR1(h) (Homo sapiens)
- Sequence (P11362 22-822): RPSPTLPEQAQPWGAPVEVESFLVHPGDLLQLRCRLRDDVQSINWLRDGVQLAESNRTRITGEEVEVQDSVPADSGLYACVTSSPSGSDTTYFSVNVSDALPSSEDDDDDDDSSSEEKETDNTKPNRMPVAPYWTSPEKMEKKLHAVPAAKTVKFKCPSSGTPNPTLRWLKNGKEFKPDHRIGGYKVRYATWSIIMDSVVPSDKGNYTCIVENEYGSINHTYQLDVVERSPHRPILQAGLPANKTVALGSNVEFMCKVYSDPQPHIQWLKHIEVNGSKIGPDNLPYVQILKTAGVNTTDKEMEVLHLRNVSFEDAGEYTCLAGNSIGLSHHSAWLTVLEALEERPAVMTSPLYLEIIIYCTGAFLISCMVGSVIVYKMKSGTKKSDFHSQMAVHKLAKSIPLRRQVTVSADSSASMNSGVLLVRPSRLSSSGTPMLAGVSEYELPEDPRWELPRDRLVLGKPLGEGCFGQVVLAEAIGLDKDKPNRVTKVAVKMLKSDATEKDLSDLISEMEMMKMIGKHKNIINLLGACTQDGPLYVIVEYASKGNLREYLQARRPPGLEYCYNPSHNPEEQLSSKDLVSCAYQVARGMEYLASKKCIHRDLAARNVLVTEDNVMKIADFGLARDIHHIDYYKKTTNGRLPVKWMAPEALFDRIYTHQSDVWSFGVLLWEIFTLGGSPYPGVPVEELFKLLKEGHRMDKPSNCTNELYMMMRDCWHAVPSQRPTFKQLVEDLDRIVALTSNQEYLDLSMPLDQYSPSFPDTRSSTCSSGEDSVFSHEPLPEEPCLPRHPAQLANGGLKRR
- Assay details: KinaseProfiler kinase assay
- Type: biochemical
- Condition details: read-out: IC50 (nM) FGFR1 (h)
Metric: IC50 (nM)

                            chemical_string  metric  readout_units  readout_value
0  Cc1cc2c(F)c(Oc3nc(Nc4cc(C5CC5)[nH]n4)cc(N4CCNCC4)n3)ccc2[nH]1    IC50             nM            0.5
1  Cc1cc2c(F)c(Oc3nc(Nc4cc(C5CC5)[nH]n4)cc(N4CCN(C)CC4)n3)ccc2[nH]1    IC50             nM              1
2  C/C=C/c1cc(Nc2cc(N3CCNCC3)nc(Oc3ccc4[nH]c(C)cc4c3F)n2)n[nH]1    IC50             nM            0.6
3  Cc1cc2c(F)c(Oc3nc(Nc4cc(C5CC5)[nH]n4)cc(N4CCNCC4)n3)cc(F)c2[nH]1    IC50             nM            0.6
4  C/C=C/c1cc(Nc2cc(N3CCN(CCO)CC3)nc(Oc3cc(F)c4[nH]c(C)cc4c3F)n2)n[nH]1    IC50             nM            0.2
